# experiment-description: Quantitative High-Throughput drug screen in 47 multiple myeloma cell lines against the NCATS MIPE library collection: JIM3_ECACC cell viability assay (AID 1918963; note: nearly all actives have a fitted effect of over 35% in size; note: potency is the fitted concentration of half-maximal effect)
# conditions-used: JIM3 myeloma viability, CellTiter-Glo ATP, 48 h; series mostly up to 45.8 µM
Records with an inconclusive call do not appear. Active and inactive are the calls of the source. Calls come from the whole dose curve; as a rule, active = well fitted cell-killing curve with a large enough effect; inconclusive = small, poorly fitted or top-dose-only effect; inactive = no such curve, though single readings can be large or run the other way.
recorded-endpoint: Potency

In [3]: df
Out[3]:
                                   compound  recorded_endpoint  experimental_result
0  CC(=CCCC1=CCC(C2=CC(=O)OC2O)OC1O)CCC1=C(C)CCCC1(C)C (centres undefined)            Potency             inactive
1  CC(N[C@H]1C[C@H]1c1ccccc1)c1ccc2c(c1)OCCO2 (some centres undefined)            Potency             inactive
2  CC(C)(C)[C@]1(O)C[C@@H]2OC(=O)C[C@@]23C(=O)O[C@@H]2OC(=O)[C@H](O)C213 (some centres undefined)            Potency             inactive
3                 O=c1cccc2n1CC1CNC[C@H]2C1            Potency             inactive
4         CCOC(=O)Nc1ccc(NCc2ccc(F)cc2)cc1N            Potency             inactive

Tell me the measured Potency of "O=c1[nH]c2ccccc2n1C1CCN(Cc2ccc(-c3[nH]c4cc5ncnc5cc4nc3-c3ccccc3)cc2)CC1" , please. 5.9 µM (active)

What measured Potency goes with "N#C[C@H](O[C@@H]1O[C@H](CO[C@@H]2O[C@H](CO)[C@H](O)[C@H](O)[C@H]2O)[C@H](O)[C@H](O)[C@H]1O)c1ccccc1" ? 20.9 µM (active)

May I ask what Potency has been recorded for "CC(C)N[C@@H]1CCn2c(=O)[nH]c3cccc(c32)[C@@H]1O" ? 9.35 µM (active)

What does the data say about its Potency? Entry: "Cc1ccccc1-n1c(Cn2ncc3c(N)ncnc32)nc2cccc(C)c2c1=O" 0.418 µM (active)

// data source = PubChem BioAssay (NCATS)
